- ASSAY_EXPLANATION: PK parameters after a single dose of three 50 mg tablets to a sample population (12)
- Format: in vivo
- DETAILS: human, po, 150 mg, plasma, three 50 mg tablets of Example 4 in a single dose, read-out: Cmax, adjusted geometric mean
READOUT_NAME: Cmax (ng/mL)
Numbers only, in ng/mL.

Query: Give its Cmax value. Item: CC(C)c1cc2[nH]c(=O)n(NS(C)(=O)=O)c(=O)c2cc1-c1ccnn1C
Result: 2910
